experiment: MTT-based cytotoxicity assay; conditions: mouse, 3T3 mouse fibroblast cells, 3T3 cell-line, read-out: Cytotoxicity % Inhibition
MEASURED_QUANTITY: cytotoxicity (%)
Answers are plain numbers, in %.

Retrieve cytotoxicity measured for O=C(O)c1ccccc1Nc1cc([N+](=O)[O-])ccc1Cl and print it.
3

Hello, please tell me recorded cytotoxicity for this one: O=C(O)c1ccccc1Nc1cc(Cl)ccc1Cl
1.6

Provide measured cytotoxicity value, entry: O=C(O)c1ccccc1Nc1cccc([N+](=O)[O-])c1
4.1

Note down cytotoxicity recorded for O=C(O)c1ccccc1Nc1ccc(Cl)c(Cl)c1
40.1

Find the measured cytotoxicity of O=C(O)c1ccccc1Nc1ccc(F)cc1F and report it.
1.1

Determine its reported cytotoxicity: O=C(O)c1ccccc1Nc1cc(Cl)c([N+](=O)[O-])cc1Cl
29.6

Attention now turns to another entry.
Give the value of cytotoxicity reported for the following: O=C(O)c1ccccc1Nc1ccccc1Cl
0.9

====

For each entry below, report its cytotoxicity value.
experiment: MTT-based cytotoxicity assay; conditions: mouse, 3T3 mouse fibroblast cells, 3T3 cell-line, read-out: Cytotoxicity % Inhibition
Numbers only, in %.

Sample answers from the record:
Retrieve cytotoxicity measured for O=C(O)c1ccccc1Nc1ccc(Cl)cc1[N+](=O)[O-] [Compound 2, 2-(4-Chloro-2-nitroanilino)benzoic acid] and print it.
5.6

For the molecule O=C(O)c1ccccc1Nc1cc(Cl)cc([N+](=O)[O-])c1 [Compound 7, 2-(3-Chloro-5-nitroanilino)benzoic acid] , report cytotoxicity.
13

Annotate the molecule O=C(O)c1ccccc1Nc1ccc(Cl)c([N+](=O)[O-])c1 [Compound 4, 2-(4-Chloro-3-nitroanilino)benzoic acid] with its measured cytotoxicity.
19.7

Could you please provide reported cytotoxicity for COc1cccc(Nc2ccccc2C(=O)O)c1 [Compound 18, 2-(3-Methoxyanilino)benzoic acid] ? Thanks!
7.1

Provide one value: measured cytotoxicity of Cc1ccc(Cl)cc1Nc1ccccc1C(=O)O [Compound 8, 2-(5-Chloro-2-methylanilino)benzoic acid]
3.2

Give cytotoxicity for all molecules that follow.
1. CCCCc1ccc(Nc2ccccc2C(=O)O)cc1 [Compound 12, 2-(4-Butylanilino)benzoic acid]
2. Cc1cc(C)cc(Nc2ccccc2C(=O)O)c1 [Compound 13, 2-(3,5-Dimethylanilino)benzoic acid]
3. O=C(O)c1ccccc1Nc1ccc(Cl)cc1 [Compound 5, 2-(4-Chloroanilino)benzoic acid]
4. COc1cc(OC)c(Nc2ccccc2C(=O)O)cc1Cl [Compound 3]
5. O=C(O)c1ccccc1Nc1ccc([N+](=O)[O-])cc1[N+](=O)[O-] [Compound 1, 2-(2,4-Dinitroanilino)benzoic acid]
6. O=C(O)c1ccccc1Nc1cc(Cl)ccc1[N+](=O)[O-] [Compound 17, 2-(5-Chloro-2-nitroanilino)benzoic acid]

[17.3, 4.8, 41.3, 22.4, 1.5, 1.5]

====

biological target: Human serum albumin (HSA) glycation by fructose (AGE-HSA) (Homo sapiens); construct: purchased Sigma Aldrich, St. Louis, Mo., USA; test: In-vitro antiglycation activity against HSA glycation (fluorescence-based antiglycation assay); assay type: biochemical; conditions: read-out: Antiglycation Activity IC50 ± SEM
Sequence (P02768 25-609): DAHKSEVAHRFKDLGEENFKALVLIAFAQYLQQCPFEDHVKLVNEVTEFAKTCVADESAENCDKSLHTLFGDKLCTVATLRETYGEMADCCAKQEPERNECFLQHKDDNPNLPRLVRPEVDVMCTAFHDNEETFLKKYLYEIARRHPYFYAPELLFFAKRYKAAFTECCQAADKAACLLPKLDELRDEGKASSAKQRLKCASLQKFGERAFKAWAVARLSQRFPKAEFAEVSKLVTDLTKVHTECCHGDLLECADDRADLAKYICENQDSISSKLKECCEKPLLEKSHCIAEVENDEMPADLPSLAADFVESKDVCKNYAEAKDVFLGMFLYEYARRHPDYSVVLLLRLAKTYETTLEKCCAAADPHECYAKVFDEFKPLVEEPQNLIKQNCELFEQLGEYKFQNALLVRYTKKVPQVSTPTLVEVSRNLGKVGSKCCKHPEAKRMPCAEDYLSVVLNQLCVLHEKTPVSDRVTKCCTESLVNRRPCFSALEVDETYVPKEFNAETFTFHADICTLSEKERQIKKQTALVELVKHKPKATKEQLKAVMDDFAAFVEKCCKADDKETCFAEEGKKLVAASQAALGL
MEASURED_QUANTITY: pIC50
Answers are plain numbers, as −log10 of the molar value.

# annotated cases, reported pIC50 shown
Report measured pIC50; entry is O=C(O)c1ccccc1Nc1cccc([N+](=O)[O-])c1
3.58

Provide one value: measured pIC50 of O=C(O)c1ccccc1Nc1ccc([N+](=O)[O-])cc1[N+](=O)[O-]
4.17

# next molecule below
Look up and state reported pIC50 for C[C@@H]1O[C@@H](OC[C@H]2O[C@@H](Oc3c(-c4ccc(O)c(O)c4)oc4cc(O)cc(O)c4c3=O)[C@H](O)[C@@H](O)[C@@H]2O)[C@H](O)[C@H](O)[C@H]1O [rutin, reference compound]
4.15
